molecular target: α4β2 subtype of nicotinic acetylcholine receptors (Rattus norvegicus, UniProt P09483+P12390); construct: examined using rat brain membrane obtained from whole homogenized brain; from tissue; host or cells: rat whole brain membranes (Fischer-344 male rats); experiment: Binding assay at α4β2 subtype of nicotinic acetylcholine receptors ([3H]-cytisine, rat brain membrane)
Sequence (P09483 31-630): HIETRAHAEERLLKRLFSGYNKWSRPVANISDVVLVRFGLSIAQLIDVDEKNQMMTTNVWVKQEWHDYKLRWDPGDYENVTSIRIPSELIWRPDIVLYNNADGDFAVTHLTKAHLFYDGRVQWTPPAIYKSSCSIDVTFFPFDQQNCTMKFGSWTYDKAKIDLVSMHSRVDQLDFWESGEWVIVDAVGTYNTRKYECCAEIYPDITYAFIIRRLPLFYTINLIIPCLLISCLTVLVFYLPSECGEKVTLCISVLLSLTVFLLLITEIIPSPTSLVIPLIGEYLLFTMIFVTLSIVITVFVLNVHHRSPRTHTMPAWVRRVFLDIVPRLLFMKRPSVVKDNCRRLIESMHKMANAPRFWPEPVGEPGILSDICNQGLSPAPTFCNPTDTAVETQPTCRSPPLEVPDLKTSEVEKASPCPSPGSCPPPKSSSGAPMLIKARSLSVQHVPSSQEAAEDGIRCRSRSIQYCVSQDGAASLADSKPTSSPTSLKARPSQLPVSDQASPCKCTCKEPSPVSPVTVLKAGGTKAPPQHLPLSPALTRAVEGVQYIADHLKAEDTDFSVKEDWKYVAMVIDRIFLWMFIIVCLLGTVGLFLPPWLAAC
Sequence (P12390 25-500): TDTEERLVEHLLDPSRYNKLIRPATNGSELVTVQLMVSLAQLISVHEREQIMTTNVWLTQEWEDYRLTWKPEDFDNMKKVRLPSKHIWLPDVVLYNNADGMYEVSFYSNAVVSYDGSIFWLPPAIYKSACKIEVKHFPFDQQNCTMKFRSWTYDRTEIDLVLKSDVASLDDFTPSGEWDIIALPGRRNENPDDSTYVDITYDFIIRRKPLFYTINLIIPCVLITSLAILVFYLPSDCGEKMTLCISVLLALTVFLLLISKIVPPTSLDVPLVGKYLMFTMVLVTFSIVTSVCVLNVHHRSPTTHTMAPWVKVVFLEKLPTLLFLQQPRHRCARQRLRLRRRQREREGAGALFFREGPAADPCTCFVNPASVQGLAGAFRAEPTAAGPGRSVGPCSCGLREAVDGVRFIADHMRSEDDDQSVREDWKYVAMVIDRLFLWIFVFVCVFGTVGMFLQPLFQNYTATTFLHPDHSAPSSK
What pKi was measured for each of the following?
When answering, recall that pKi equals minus log10 of the concentration in mol/L, and write that number alone.

Dear colleague, please send me the reported pKi for `CC1=NCCN1Cc1ccc(Cl)nc1` when you can.
6.94

Identify measured pKi associated with `CN1CCN=C1c1ccc(Cl)nc1`
7.35

Please list pKi recorded for the compound `Cc1ccc(CN2C=NCCC2)cn1`
7.92

Tell me measured pKi for `c1cncc(CC2=NCCCN2)c1` please.
7.07

Respond only with pKi recorded for `CC1=NCCN1CCc1ccc(Cl)nc1`
7.15

Supply pKi value. Item: `CN1CCCN=C1c1ccc(Cl)nc1`
7.17

Provide measured pKi value, entry: `Cc1ccc(CC2=NCCCN2)cn1`
6.78

Provide pKi value for the following compound: C1=NCC(c2cccnc2)N1 (stereo not drawn)
6.44

# return recorded pKi for input `Fc1ccc(CC2=NCCCN2)cn1`
7.09

Please report the measured pKi for `Cc1cncc(CC2=NCCCN2)c1`
6.69

Identify pKi associated with the compound `CN1CCN=C1Cc1ccc(Cl)nc1`
8.11

Consider the compound `C1=NCCCN1Cc1cccnc1` . State its measured pKi.
8.16

====

Consider the following compounds; for each one, report its remaining activity at 1000 µM.
molecular target: α1β1γδ subtype of nicotinic acetylcholine receptors (Rattus norvegicus, UniProt P18916+P25108+P25109+P25110); assay: biochemical; type: binding; settings: read-out: control % of [3H]-α-Bgt binding at 1,000 μM of test compound
Sequence (P25109 24-501): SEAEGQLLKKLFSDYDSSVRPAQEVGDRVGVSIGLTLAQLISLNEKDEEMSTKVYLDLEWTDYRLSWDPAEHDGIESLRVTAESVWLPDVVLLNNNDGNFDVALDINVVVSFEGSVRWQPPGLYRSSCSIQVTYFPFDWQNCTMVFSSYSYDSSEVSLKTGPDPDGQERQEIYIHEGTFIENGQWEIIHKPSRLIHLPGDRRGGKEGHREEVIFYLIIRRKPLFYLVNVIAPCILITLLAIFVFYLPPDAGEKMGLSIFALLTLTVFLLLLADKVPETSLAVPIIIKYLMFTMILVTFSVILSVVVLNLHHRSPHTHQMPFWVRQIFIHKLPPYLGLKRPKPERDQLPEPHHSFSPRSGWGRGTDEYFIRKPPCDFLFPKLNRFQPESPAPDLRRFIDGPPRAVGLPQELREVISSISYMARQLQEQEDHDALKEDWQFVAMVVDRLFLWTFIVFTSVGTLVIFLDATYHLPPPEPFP
Sequence (P25110 22-517): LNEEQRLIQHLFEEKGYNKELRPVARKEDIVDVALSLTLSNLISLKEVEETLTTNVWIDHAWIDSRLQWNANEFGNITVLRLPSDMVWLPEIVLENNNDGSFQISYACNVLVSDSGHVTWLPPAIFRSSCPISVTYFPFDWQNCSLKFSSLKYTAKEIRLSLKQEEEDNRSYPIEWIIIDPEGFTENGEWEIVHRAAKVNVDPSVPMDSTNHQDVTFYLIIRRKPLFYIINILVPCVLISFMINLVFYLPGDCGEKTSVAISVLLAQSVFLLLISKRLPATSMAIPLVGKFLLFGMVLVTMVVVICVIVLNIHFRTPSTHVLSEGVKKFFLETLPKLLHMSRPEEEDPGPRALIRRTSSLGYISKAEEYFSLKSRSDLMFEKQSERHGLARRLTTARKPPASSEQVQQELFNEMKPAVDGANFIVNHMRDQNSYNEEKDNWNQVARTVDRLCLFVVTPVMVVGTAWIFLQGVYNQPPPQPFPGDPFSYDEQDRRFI
Sequence (P25108 21-457): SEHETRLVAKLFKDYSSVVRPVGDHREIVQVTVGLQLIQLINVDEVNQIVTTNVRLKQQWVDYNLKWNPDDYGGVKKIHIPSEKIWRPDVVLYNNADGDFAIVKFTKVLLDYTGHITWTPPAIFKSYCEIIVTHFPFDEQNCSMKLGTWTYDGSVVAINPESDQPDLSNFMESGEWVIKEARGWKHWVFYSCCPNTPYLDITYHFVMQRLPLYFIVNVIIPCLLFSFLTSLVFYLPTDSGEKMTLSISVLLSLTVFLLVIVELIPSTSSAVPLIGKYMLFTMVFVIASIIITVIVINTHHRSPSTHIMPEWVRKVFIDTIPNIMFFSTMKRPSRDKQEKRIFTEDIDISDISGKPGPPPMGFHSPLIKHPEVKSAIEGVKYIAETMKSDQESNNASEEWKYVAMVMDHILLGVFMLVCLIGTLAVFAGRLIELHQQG
Give the value, in units of %, as a plain number.

For the compound `Clc1ccc(CC2=NCCN2)cn1` , give its reported remaining activity at 1000 µM.
51

# return recorded remaining activity at 1000 µM for entry CC1=NCC(c2cccnc2)N1 (stereo not shown)
35

Supply measured remaining activity at 1000 µM of `CN1CCCN=C1Cc1ccc(Cl)nc1` in your reply.
17

Look up and report measured remaining activity at 1000 µM for this entry: `CC1=NCCN1Cc1ccc(Cl)nc1`
53

For the compound `CN1CCCN=C1c1ccc(Cl)nc1` , report remaining activity at 1000 µM.
16

Supply remaining activity at 1000 µM value. Item: `CN1CCN=C1c1ccc(Cl)nc1`
5

Return reported remaining activity at 1000 µM. Input compound: `c1cncc(CC2=NCCCN2)c1`
18

Tell me remaining activity at 1000 µM reported for `Clc1cc(CC2=NCCCN2)cnc1Cl`
34

Report remaining activity at 1000 µM, nothing else, for this compound: `CC1(C)CN(Cc2ccc(Cl)nc2)C=N1`
42

Identify measured remaining activity at 1000 µM associated with `CN1CCN=C1Cc1ccc(Cl)nc1`
16

====

Record form. Attribute: remaining activity at 100 µM. Fill in for each entry.
Molecular target: α1β1γδ subtype of nicotinic acetylcholine receptors (Rattus norvegicus, UniProt P18916+P25108+P25109+P25110)
Test: biochemical
Type: binding
Conditions: read-out: control % of [3H]-α-Bgt binding at 100 μM of test compound
Experimental: The methods for evaluating the binding capabilities of the compounds at nicotinic acetylcholine receptors are different by subtypes of receptors. […] The affinity of the compounds of the present invention to α1β1γδ subtype of nicotinic acetylcholine receptors was measured by the following method, which was modified method described by Garcha H. S., Thomas P., Spivak C. […] Receptors binding experiments were performed as follow. […] The filters were counted in 3 ml of clearsol I (Nacalai Tesque Inc.). […]
Numeric only. Scale: %

Determine from records and report remaining activity at 100 µM for CC1=NCC(c2cccnc2)N1 (centres unmarked) [Compound 32, 2-methyl-5-(3-pyridyl)-2-imidazoline]
69

// fetch remaining activity at 100 µM given entry Brc1cncc(CC2=NCCCN2)c1 [Compound 16]
63

For the molecule CN1CCCN=C1c1ccc(Cl)nc1 [Compound 4] , give its measured remaining activity at 100 µM value.
46

Note remaining activity at 100 µM for the molecule shown: CN1CCN=C1c1ccc(Cl)nc1 [Compound 3]
34

Please give measured remaining activity at 100 µM of the following entry: Cc1ccc(CC2=NCCCN2)cn1 [Compound 43]
71

// Input: c1ccc2ncc(C3=NCCCN3)cc2c1 [Compound 25] . Output its remaining activity at 100 µM only.
41

Give the reported value of remaining activity at 100 µM for this record: CN1CCCN=C1Cc1ccc(Cl)nc1 [Compound 10]
40

# return recorded remaining activity at 100 µM for input Clc1ccc(C2=NCCCN2)cn1 [Compound 2]
34

Look up and state reported remaining activity at 100 µM for Clc1cc(CC2=NCCCN2)cnc1Cl [Compound 36]
81

Tell me remaining activity at 100 µM reported for c1cncc(CC2=NCCN2)c1 [Compound 19, 2-(3-pyridyl)methyl-2-imidazoline]
69

Assign remaining activity at 100 µM to the following record: CC1=NCCN1Cc1ccc(Cl)nc1 [Compound 11]
74
